Reference for the values: ChEMBL document CHEMBL3272036

system: L1210; experiment: Antitumor activity against mouse L1210 cells allografted in BDF1 mouse assessed as survival at 200 mg/kg, ip administered as single dose measured on day 30 relative to vehicle-treated control; format: functional, organism-based; design: dose 200 mg/kg
The source made the active and inactive calls. The calls are words filed in the database; no cut-off is given here.
# valid calls are active, inactive; nothing else

Data request: How did this test come out for Cl.Nc1ccn([C@@H]2O[C@H](COC(=O)Cc3ccccc3)[C@@H](OC(=O)Cc3ccccc3)[C@@H]2O)c(=O)n1 ?
Data returned: inactive

Data request: Each compound tested received a call. Report the one for CCCCCCCCCCCCCCCCCCCC(=O)O[C@H]1[C@H](O)[C@H](n2ccc(N)nc2=O)O[C@@H]1CO .
Data returned: inactive

Data request: For CCCCCCCCCCCCCCCCCC(=O)OC[C@H]1O[C@@H](n2ccc(N)nc2=O)[C@@H](O)[C@@H]1OC(=O)CCCCCCCCCCCCCCCCC , what call appears in the results of this test?
Data returned: inactive

Data request: Returns: the outcome recorded for CC(=O)OC[C@H]1O[C@@H](n2ccc(N)nc2=O)[C@@H](O)[C@@H]1OC(C)=O.Cl in this assay.
Data returned: inactive

Data request: Short answer needed: outcome of this test for CCCCCCCCCCCCCCCC(=O)O[C@H]1[C@H](O)[C@H](n2ccc(N)nc2=O)O[C@@H]1CO ?
Data returned: active

Data request: Which outcome did this test record for the compound CCCCCCCCCCCC(=O)OC[C@H]1O[C@@H](n2ccc(N)nc2=O)[C@@H](O)[C@@H]1OC(=O)CCCCCCCCCCC ?
Data returned: active

Data request: Give the logged outcome of this assay for the following compound: CCCCCCCCCCCCCC(=O)OC[C@H]1O[C@@H](n2ccc(N)nc2=O)[C@@H](O)[C@@H]1OC(=O)CCCCCCCCCCCCC
Data returned: active

Data request: Fill in: this test's call for CCCC(=O)O[C@H]1[C@H](O)[C@H](n2ccc(N)nc2=O)O[C@@H]1CO is ___
Data returned: inactive

Data request: In this assay, the call recorded for CCCCCC(=O)O[C@H]1[C@H](O)[C@H](n2ccc(N)nc2=O)O[C@@H]1CO was what?
Data returned: inactive

Data request: Dear colleague, could you share the recorded outcome for CCCCCCCC/C=C\CCCCCCCCCCCC(=O)OC[C@H]1O[C@@H](n2ccc(N)nc2=O)[C@@H](O)[C@@H]1OC(=O)CCCCCCCCCCC/C=C\CCCCCCCC when you have a moment?
Data returned: inactive

Data request: Entry CCCCCCCCCCCCCCCCCCCC(=O)OC[C@H]1O[C@@H](n2ccc(N)nc2=O)[C@@H](O)[C@@H]1OC(=O)CCCCCCCCCCCCCCCCCCC : call = ?
Data returned: inactive

Data request: Status in this test for CCCCCCCCCCCCCCCCCCCCCC(=O)OC[C@H]1O[C@@H](n2ccc(N)nc2=O)[C@@H](O)[C@@H]1OC(=O)CCCCCCCCCCCCCCCCCCCCC ?
Data returned: inactive

Data request: What classification did CC(=O)O[C@H]1[C@H](O)[C@H](n2ccc(N)nc2=O)O[C@@H]1CO end up with in this test?
Data returned: inactive

Data request: Hey, what did the test say about Cl.Nc1ccn([C@@H]2O[C@H](CO)[C@@H](OC(=O)Cc3ccccc3)[C@@H]2O)c(=O)n1 ?
Data returned: inactive

Data request: Which result was noted for this compound in the test: C=CCCCCCCCCC(=O)O[C@H]1[C@H](O)[C@H](n2ccc(N)nc2=O)O[C@@H]1CO
Data returned: inactive

Data request: What call does the record list for CCCCCCCC/C=C\CCCCCCCC(=O)O[C@H]1[C@H](O)[C@H](n2ccc(N)nc2=O)O[C@@H]1CO ?
Data returned: inactive
